# Tested on: Bromodomain-containing protein 4 (Homo sapiens, UniProt O60885)
# Protocol notes: TR-FRET Assay
Measured quantity: IC50

1. Cc1nnn(C)c1-c1cnc2c3ccc(C(C)(C)O)cc3n([C@@H](c3ccccc3F)C3CCOCC3)c2c1 :: < 5 nM
